Assay: Cytotoxicity against human HEK293 cells
Format: toxicity, cell-based
metric.name: CC50

Tell me CC50 reported for "COc1ccc(NC(=O)N2CCCCN3C[C@H](c4ccc(C#Cc5ccccc5)cc4)[C@@H]3C2)cc1" > 50 µM

----------
Test system: L6
Assay: Cytotoxicity against rat L6 cells
Type: functional, cell-based
metric.name: pIC50
pIC50 (log units): -log10 of the concentration in mol/L.

Consider the molecule "CC(=O)N1CCN(c2ccc(CN(C(=O)/C=C/c3ccc(C(F)(F)F)cc3)[C@@H](Cc3ccccc3)C(=O)N3CCN(Cc4ccc(N(C)CCO)cc4)CC3)cc2)CC1" . State its measured pIC50. 5.05

Hello, the source for this data is ChEMBL document CHEMBL5104092, in case you need it.
